Recorded 3-HB levels values for a group of sequences are listed next.
- PROCEDURE DETAILS: Plasma NEFA and 3-HB in C57BL/6 mice
- Assay type: in vivo, mouse
- Parameters: unit not given here
- CONDITION SET: Week 0 (before treatment), 50 mg/kg/week
Oligonucleotides are written 5' to 3', each unit as a sugar letter and its base; * is a phosphorothioate linkage, no mark a phosphodiester; rarer units and linkages stand in square brackets, end groups in braces. Plain capitals give the bases only. e = 2'-O-(2-methoxyethyl) (MOE); [5mC] = 5-methylcytosine; d = 2'-deoxy (DNA)

# SEQUENCE TEXT, 3-HB levels
measured = [
    ("GCCACCAGTGCCTGCTGAGC (antisense eG*e[5mC]*e[5mC]*eA*e[5mC]*d[5mC]*dA*dG*dT*dG*d[5mC]*d[5mC]*dT*dG*d[5mC]*eT*eG*eA*eG*e[5mC]) [ISIS 447143]", 108),
    ("TATTTCTATAGCTCATGACA (antisense eT*eA*eT*eT*eT*d[5mC]*dT*dA*dT*dA*dG*d[5mC]*dT*d[5mC]*dA*eT*eG*eA*e[5mC]*eA) [ISIS 447144]", 124),
    ("GCAGCTCGATTCGGGCATGA (antisense eG*e[5mC]*eA*eG*e[5mC]*dT*d[5mC]*dG*dA*dT*dT*d[5mC]*dG*dG*dG*e[5mC]*eA*eT*eG*eA) [ISIS 447118]", 158),
    ("CGGATGATTCTTGCTGGTAA (antisense e[5mC]*eG*eG*eA*eT*dG*dA*dT*dT*d[5mC]*dT*dT*dG*d[5mC]*dT*eG*eG*eT*eA*eA) [ISIS 447114]", 145),
]

----------
- System: murine TTC39B mRNA
- PROCEDURE DETAILS: Dose-dependent antisense inhibition of murine TTC39B in mouse primary hepatocytes (Example 2)
- Type: cell-based
- CONDITION SET: 200 nM, cytofectin, ~16 h
Oligonucleotides are written 5' to 3', each unit as a sugar letter and its base; * is a phosphorothioate linkage, no mark a phosphodiester; rarer units and linkages stand in square brackets, end groups in braces. Plain capitals give the bases only. e = 2'-O-(2-methoxyethyl) (MOE); [5mC] = 5-methylcytosine; d = 2'-deoxy (DNA)
Below, each entry is listed alongside its reported percent inhibition of TTC39B mRNA.
ASSAY ENDPOINT: percent inhibition of TTC39B mRNA (%)

# SEQUENCE TEXT, QUANTITATIVE READOUT
rows = [
    ("ATGCCATTCTGGATGTCCTG (antisense eA*eT*eG*e[5mC]*e[5mC]*dA*dT*dT*d[5mC]*dT*dG*dG*dA*dT*dG*eT*e[5mC]*e[5mC]*eT*eG) [ISIS 447106]", 87),
    ("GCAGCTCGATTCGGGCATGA (antisense eG*e[5mC]*eA*eG*e[5mC]*dT*d[5mC]*dG*dA*dT*dT*d[5mC]*dG*dG*dG*e[5mC]*eA*eT*eG*eA) [ISIS 447118]", 82),
    ("GGAGGTCCCCTGGCCACGGC (antisense eG*eG*eA*eG*eG*dT*d[5mC]*d[5mC]*d[5mC]*d[5mC]*dT*dG*dG*d[5mC]*d[5mC]*eA*e[5mC]*eG*eG*e[5mC]) [ISIS 447151]", 85),
    ("GCTCAGCTTGCAAGGGCCGC (antisense eG*e[5mC]*eT*e[5mC]*eA*dG*d[5mC]*dT*dT*dG*d[5mC]*dA*dA*dG*dG*eG*e[5mC]*e[5mC]*eG*e[5mC]) [ISIS 447127]", 90),
    ("GGCACTCTTTATATATTTGG (antisense eG*eG*e[5mC]*eA*e[5mC]*dT*d[5mC]*dT*dT*dT*dA*dT*dA*dT*dA*eT*eT*eT*eG*eG) [ISIS 447111]", 87),
    ("GCCAATCTAAAAATGGCTCA (antisense eG*e[5mC]*e[5mC]*eA*eA*dT*d[5mC]*dT*dA*dA*dA*dA*dA*dT*dG*eG*e[5mC]*eT*e[5mC]*eA) [ISIS 447135]", 76),
    ("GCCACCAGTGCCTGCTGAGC (antisense eG*e[5mC]*e[5mC]*eA*e[5mC]*d[5mC]*dA*dG*dT*dG*d[5mC]*d[5mC]*dT*dG*d[5mC]*eT*eG*eA*eG*e[5mC]) [ISIS 447143]", 91),
    ("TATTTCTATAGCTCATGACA (antisense eT*eA*eT*eT*eT*d[5mC]*dT*dA*dT*dA*dG*d[5mC]*dT*d[5mC]*dA*eT*eG*eA*e[5mC]*eA) [ISIS 447144]", 84),
    ("AATGCCACCACCTTCAACCA (antisense eA*eA*eT*eG*e[5mC]*d[5mC]*dA*d[5mC]*d[5mC]*dA*d[5mC]*d[5mC]*dT*dT*d[5mC]*eA*eA*e[5mC]*e[5mC]*eA) [ISIS 447138]", 86),
    ("GTTGCCTTGGACCATTTACT (antisense eG*eT*eT*eG*e[5mC]*d[5mC]*dT*dT*dG*dG*dA*d[5mC]*d[5mC]*dA*dT*eT*eT*eA*e[5mC]*eT) [ISIS 447122]", 88),
]
